- Target Under Test: rat TAAR1 (Rattus norvegicus (Rat))
- Procedure Text: Radioligand binding assay on rat TAAR1
- Measurement Context: rat TAAR1 (second value of the cell); membranes of HEK-293 cells stably expressing rat TAAR1; read-out: Ki (μM) mouse/rat
- Method: Construction of TAAR Expression Plasmids and Stably Transfected Cell Lines For the construction of expression plasmids the coding sequences of human, rat and mouse TAAR 1 were amplified from genomic DNA essentially as described by Lindemann et al.. The Expand High Fidelity PCR System (Roche Diagnostics) was used with 1.5 mM Mg^2+ and purified PCR products were cloned into pCR2.1-TOPO cloning vector (Invitrogen) following the instructions of the manufacturer. […]
The following molecules are listed with their measured log10 Ki values.
Quantity Name: log10 Ki (log10 of the value in µM)

Molecule: CCOc1ccc(C(=O)Nc2ccc(C34CCC(CO3)NC4)cc2)cc1 (centres unmarked)
Target Under Test: rat TAAR1 (Rattus norvegicus (Rat))
Quantity Name: log10 Ki
Numeric Result: 0.30
--
Molecule: CCCc1n[nH]c(C(=O)Nc2ccc(C[C@@]34CN[C@@H](CO3)C4)cc2)c1Cl
Target Under Test: rat TAAR1 (Rattus norvegicus (Rat))
Quantity Name: log10 Ki
Numeric Result: -1.18
--
Molecule: CCOc1ccc(C(=O)Nc2ccc(C[C@@]34CN[C@@H](CO3)C4)cc2)cc1
Target Under Test: rat TAAR1 (Rattus norvegicus (Rat))
Quantity Name: log10 Ki
Numeric Result: -0.85
--
Molecule: O=C(Nc1ccc([C@@]23CN[C@@H](CO2)C3)cc1)c1ccc(Cl)cc1
Target Under Test: rat TAAR1 (Rattus norvegicus (Rat))
Quantity Name: log10 Ki
Numeric Result: -0.01
--
Molecule: O=C(Nc1ccc([C@]23CN[C@H](CO2)C3)cc1)c1ccc(Cl)cc1
Target Under Test: rat TAAR1 (Rattus norvegicus (Rat))
Quantity Name: log10 Ki
Numeric Result: -1.15
--
Molecule: CCOc1ccc(C(=O)Nc2ccc(C[C@@]34CN[C@@H](CO3)C4)cc2)cn1
Target Under Test: rat TAAR1 (Rattus norvegicus (Rat))
Quantity Name: log10 Ki
Numeric Result: -0.35
--
Molecule: O=C(Nc1ccc(C[C@@]23CN[C@@H](CO2)C3)cc1)c1ccc(Cl)cc1
Target Under Test: rat TAAR1 (Rattus norvegicus (Rat))
Quantity Name: log10 Ki
Numeric Result: -1.20

###

- Target Under Test: rat TAAR1 (Rattus norvegicus (Rat), UniProt Q923Y9)
- Sequence (Q923Y9 whole entry): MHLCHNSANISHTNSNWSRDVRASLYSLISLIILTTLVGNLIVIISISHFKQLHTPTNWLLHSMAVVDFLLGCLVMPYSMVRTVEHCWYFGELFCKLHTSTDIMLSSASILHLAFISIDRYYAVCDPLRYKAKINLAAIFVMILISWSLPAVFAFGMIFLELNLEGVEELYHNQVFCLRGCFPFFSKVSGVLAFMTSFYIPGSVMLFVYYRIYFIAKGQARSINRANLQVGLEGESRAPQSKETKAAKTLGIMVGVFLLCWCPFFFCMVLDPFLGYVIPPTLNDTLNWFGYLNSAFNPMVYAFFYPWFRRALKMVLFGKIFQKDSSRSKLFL

Molecule: CCN(C[C@H]1COC(N)=N1)c1ccccc1 [reference compound]
Kd: ~2.3 nM

###

- Target Under Test: rat TAAR1 (Rattus norvegicus (Rat), UniProt Q923Y9)
- Procedure Text: Radioligand binding assay on rat TAAR1
- Measurement Context: rat TAAR1 (second value of the cell); membranes of HEK-293 cells stably expressing rat TAAR1; read-out: Ki (μM) mouse/rat

Compound: O=C(Nc1ccc(C[C@]23CN[C@H](CO2)C3)cc1)c1ccc(Cl)cc1
Ki / µM: 0.0505
//
Compound: O=C(Nc1ccc(C23CCC(CO2)NC3)cc1)Nc1cccc(Cl)c1 (racemic)
Ki / µM: 0.0681
//
Compound: O=C(Nc1ccc(C[C@]23CN[C@H](CO2)C3)cc1)Nc1cccc(C(F)(F)F)c1
Ki / µM: 0.0209
//
Compound: O=C(Nc1ccc([C@]23CN[C@H](CO2)C3)cc1)c1cccc(Cl)c1
Ki / µM: 0.0774
//
Compound: O=C(Nc1ccc(C[C@]23CN[C@H](CO2)C3)cc1)c1cnc(C2CC2)nc1
Ki / µM: 1.58
//
Compound: CCOc1ccc(C(=O)Nc2ccc(C[C@]34CN[C@H](CO3)C4)cc2)cn1
Ki / µM: 0.441
//
Compound: O=C(Nc1ccc(C23CCC(CO2)NC3)cc1)c1ccc(OCC(F)(F)F)nc1 (racemic)
Ki / µM: 0.624
//
Compound: O=C(Nc1ccc([C@]23CN[C@H](CO2)C3)cc1)c1ccnc(C(F)(F)F)c1
Ki / µM: 0.273

###

- Target Under Test: rat TAAR1 (Rattus norvegicus (Rat), UniProt Q923Y9)
- Procedure Text: Radioligand binding assay on rat TAAR1
- Measurement Context: rat TAAR1 (second value of the cell); membranes of HEK-293 cells stably expressing rat TAAR1; read-out: Ki (μM) mouse/rat
The following compounds are listed with their measured Ki values.
Quantity Name: Ki (µM)

Compound: O=C(Nc1ccc(C[C@]23CN[C@H](CO2)C3)cc1)Nc1ccccc1Cl
Quantity Name: Ki
Numeric Result: 0.53

Compound: O=C(Nc1ccc(C[C@@]23CN[C@@H](CO2)C3)cc1)Nc1ccc(C(F)(F)F)cc1
Quantity Name: Ki
Numeric Result: 0.0237

Compound: O=C(Nc1ccc(C[C@@]23CN[C@@H](CO2)C3)cc1)c1ccc(OCC2CC2)cc1
Quantity Name: Ki
Numeric Result: 0.0212

Compound: O=C(Nc1ccc(C[C@@]23CN[C@@H](CO2)C3)cc1)Nc1cccc(Cl)c1
Quantity Name: Ki
Numeric Result: 0.0614

Compound: O=C(Nc1ccc([C@@]23CN[C@@H](CO2)C3)cc1)c1cccc(Cl)c1
Quantity Name: Ki
Numeric Result: 0.964

Compound: FC(F)(F)c1nccc(Nc2ccc(C34CCC(CO3)NC4)cc2)n1 (centres unmarked)
Quantity Name: Ki
Numeric Result: 1.97

Compound: CC(C)c1cc(C(=O)Nc2ccc(C[C@@]34CN[C@@H](CO3)C4)cc2)[nH]n1
Quantity Name: Ki
Numeric Result: 1.16

Compound: O=C(Nc1ccc(C[C@@]23CN[C@@H](CO2)C3)cc1)c1cnc(C2CC2)nc1
Quantity Name: Ki
Numeric Result: 0.324

###

- Target Under Test: rat TAAR1 (Rattus norvegicus (Rat), UniProt Q923Y9)
- Procedure Text: Radioligand binding assay on rat TAAR1
- Measurement Context: rat TAAR1 (second value of the cell); membranes of HEK-293 cells stably expressing rat TAAR1; read-out: Ki (μM) mouse/rat
Output Fulfilled for records whose Ki is lower than 0.8 µM, Not fulfilled for records at or above 0.8 µM.

Molecule: O=C(Nc1ccc(Cl)cc1)Nc1ccc(C[C@]23CN[C@H](CO2)C3)cc1
Target Under Test: rat TAAR1 (Rattus norvegicus (Rat), UniProt Q923Y9)
Group Label: Not fulfilled

Molecule: CCc1ncc(C(=O)Nc2ccc(C[C@@]34CN[C@@H](CO3)C4)cc2)cn1
Target Under Test: rat TAAR1 (Rattus norvegicus (Rat), UniProt Q923Y9)
Group Label: Not fulfilled

Molecule: CCCc1n[nH]c(C(=O)Nc2ccc(C34CCC(CO3)NC4)cc2)c1Cl (racemic)
Target Under Test: rat TAAR1 (Rattus norvegicus (Rat), UniProt Q923Y9)
Group Label: Fulfilled

Molecule: O=C(Nc1ccc([C@@]23CN[C@@H](CO2)C3)cc1)c1ccnc(C(F)(F)F)c1
Target Under Test: rat TAAR1 (Rattus norvegicus (Rat), UniProt Q923Y9)
Group Label: Not fulfilled

Molecule: FC(F)(F)c1ccc(Nc2ccc([C@]34CN[C@H](CO3)C4)cc2)nc1
Target Under Test: rat TAAR1 (Rattus norvegicus (Rat), UniProt Q923Y9)
Group Label: Fulfilled

Molecule: Clc1ccc(Nc2ccc(C34CCC(CO3)NC4)cc2)nc1 (racemic)
Target Under Test: rat TAAR1 (Rattus norvegicus (Rat), UniProt Q923Y9)
Group Label: Not fulfilled

Molecule: FC(F)(F)c1cnc(Nc2ccc(C34CCC(CO3)NC4)cc2)nc1 (racemic)
Target Under Test: rat TAAR1 (Rattus norvegicus (Rat), UniProt Q923Y9)
Group Label: Not fulfilled

Molecule: O=C(Nc1ccc(C[C@@]23CN[C@@H](CO2)C3)cc1)c1cccc(Cl)c1
Target Under Test: rat TAAR1 (Rattus norvegicus (Rat), UniProt Q923Y9)
Group Label: Fulfilled

Molecule: O=C(Nc1ccc(C[C@]23CN[C@H](CO2)C3)cc1)c1ccnc(C(F)(F)F)c1
Target Under Test: rat TAAR1 (Rattus norvegicus (Rat), UniProt Q923Y9)
Group Label: Fulfilled

Molecule: O=C(Nc1ccc(C[C@@]23CN[C@@H](CO2)C3)cc1)Nc1ccccc1Cl
Target Under Test: rat TAAR1 (Rattus norvegicus (Rat), UniProt Q923Y9)
Group Label: Fulfilled

Molecule: O=C(Nc1ccc(C23CCC(CO2)NC3)cc1)c1ccc(OCC2CC2)cc1 (racemic)
Target Under Test: rat TAAR1 (Rattus norvegicus (Rat), UniProt Q923Y9)
Group Label: Not fulfilled

Molecule: O=C(Nc1ccc(C[C@@]23CN[C@@H](CO2)C3)cc1)c1ccnc(C(F)(F)F)c1
Target Under Test: rat TAAR1 (Rattus norvegicus (Rat), UniProt Q923Y9)
Group Label: Fulfilled

Molecule: O=C(Nc1ccc(C23CCC(CO2)NC3)cc1)c1ccnc(C(F)(F)F)c1 (racemic)
Target Under Test: rat TAAR1 (Rattus norvegicus (Rat), UniProt Q923Y9)
Group Label: Not fulfilled

Molecule: Clc1ccc(Nc2ccc(C[C@]34CN[C@H](CO3)C4)cc2)nc1
Target Under Test: rat TAAR1 (Rattus norvegicus (Rat), UniProt Q923Y9)
Group Label: Fulfilled

Molecule: O=C(Nc1ccc(Cl)cc1)Nc1ccc(C[C@@]23CN[C@@H](CO2)C3)cc1
Target Under Test: rat TAAR1 (Rattus norvegicus (Rat), UniProt Q923Y9)
Group Label: Fulfilled

Molecule: FC(F)(F)c1ccc(Nc2ccc(C[C@]34CN[C@H](CO3)C4)cc2)nc1
Target Under Test: rat TAAR1 (Rattus norvegicus (Rat), UniProt Q923Y9)
Group Label: Fulfilled

Molecule: O=C(Nc1ccc(C[C@@]23CN[C@@H](CO2)C3)cc1)c1[nH]nc(C2CC2)c1Cl
Target Under Test: rat TAAR1 (Rattus norvegicus (Rat), UniProt Q923Y9)
Group Label: Fulfilled

Molecule: Clc1ccc(Nc2ccc(C[C@@]34CN[C@@H](CO3)C4)cc2)nc1
Target Under Test: rat TAAR1 (Rattus norvegicus (Rat), UniProt Q923Y9)
Group Label: Fulfilled

Molecule: Clc1ccc(Nc2ccc([C@@]34CN[C@@H](CO3)C4)cc2)nc1
Target Under Test: rat TAAR1 (Rattus norvegicus (Rat), UniProt Q923Y9)
Group Label: Not fulfilled

Molecule: FC(F)(F)c1cnc(Nc2ccc(C34CCC(CO3)NC4)cc2)cn1 (racemic)
Target Under Test: rat TAAR1 (Rattus norvegicus (Rat), UniProt Q923Y9)
Group Label: Not fulfilled

Molecule: FC(F)(F)c1ccc(Nc2ccc(C34CCC(CO3)NC4)cc2)nc1 (racemic)
Target Under Test: rat TAAR1 (Rattus norvegicus (Rat), UniProt Q923Y9)
Group Label: Fulfilled

Molecule: FC(F)(F)c1nccc(Nc2ccc([C@]34CN[C@H](CO3)C4)cc2)n1
Target Under Test: rat TAAR1 (Rattus norvegicus (Rat), UniProt Q923Y9)
Group Label: Fulfilled

Molecule: O=C(Nc1ccc(C[C@]23CN[C@H](CO2)C3)cc1)c1[nH]nc(C2CC2)c1Cl
Target Under Test: rat TAAR1 (Rattus norvegicus (Rat), UniProt Q923Y9)
Group Label: Fulfilled

Molecule: FC(F)(F)c1cnc(Nc2ccc(C[C@]34CN[C@H](CO3)C4)cc2)cn1
Target Under Test: rat TAAR1 (Rattus norvegicus (Rat), UniProt Q923Y9)
Group Label: Not fulfilled

Molecule: FC(F)(F)c1nccc(Nc2ccc([C@@]34CN[C@@H](CO3)C4)cc2)n1
Target Under Test: rat TAAR1 (Rattus norvegicus (Rat), UniProt Q923Y9)
Group Label: Not fulfilled

Molecule: O=C(Nc1ccc(C[C@]23CN[C@H](CO2)C3)cc1)c1cccc(Cl)c1
Target Under Test: rat TAAR1 (Rattus norvegicus (Rat), UniProt Q923Y9)
Group Label: Fulfilled

Molecule: Clc1ccc(Nc2ccc([C@]34CN[C@H](CO3)C4)cc2)nc1
Target Under Test: rat TAAR1 (Rattus norvegicus (Rat), UniProt Q923Y9)
Group Label: Fulfilled
